# Test system: A549 NSCLC
# experiment_summary: NCI tumour cell line growth inhibition, 48 h
recorded_endpoint: TGI (µM)
One number for each entry, in µM.

COc1cc2c(/C=C3\C(=O)Nc4ccccc43)c[nH]c2cc1C
17.3
Cc1ccccc1NC(=O)O/N=C(\Cl)C(C)C
36.8
CCCCCCCC/C=C/CCCCCCCC1=NC(C)(C)CN1C(C)(C)CO
3.82

Q: Requested read-out: TGI. Entry: Cc1ccc(/C(=N/Nc2ccc([N+](=O)[O-])cc2)Sc2cc(Cl)c(C)cc2S(N)(=O)=O)cc1
Ans: 7.45

###

# Test system: IGROV1 ovarian
# experiment_summary: NCI tumour cell line growth inhibition, 48 h
Kindly state TGI for each of the entries shown.
One number for each entry, in µM.

Please review the following examples before continuing.
OCc1ccc(N(Cc2ccc(F)cc2)Cc2ccc(F)cc2)cc1Cl
8.07
CC1=NN(c2cccc(Cl)c2)C(=O)/C1=C\c1cn(CC(O)CN2CCCCC2)c2ccccc12 (stereo not given)
14.6
CC1=C(CO)C(=O)OC(C(C)C2CCC3C4CC5OC56C(O)C(N5CC5)=CC(=O)C6(C)C4CCC23C)C1 (stereo not given)
14.4

Let us examine a further case.
Q: Given C/C(=N\Nc1nc2ccccc2s1)c1ccncn1 , state its recorded TGI.
Ans: 4.39

###

# Test system: SF-268 CNS
# experiment_summary: NCI tumour cell line growth inhibition, 48 h
recorded_endpoint: GI50

Below, 5 molecules whose answers are already recorded.
COc1ccc(-c2ccc(C3CC(c4ccccc4)=NN3)o2)c([N+](=O)[O-])c1 (stereo not given)
37.8 µM
Nc1cc2c3c(cccc3c1)C(=O)N(CCN1CCCC1)C2=O
4.62 µM
O=S(=O)(NC1=NCCN1C(=S)SN1CCn2c1nsc2=S)c1ccc(Cl)cc1
6.5 µM
O=C1c2cc3c(cc2-c2c1c1cc(F)c(F)cc1c(=O)n2CCCn1ccnc1)OCO3
< 0.01 µM
CCOC(=O)Nc1ccc2nc(-c3cscn3)[nH]c2c1
18 µM

For each of the items listed, what is its GI50?
1. CCC[CH2][Sn-]([CH2]CCC)([CH2]CCC)[O]C(=O)C(C)C
2. CC1=NN(c2cccc(Cl)c2)C(=O)/C1=C\c1cn(CC(O)CN2CCCCC2)c2ccccc12 (stereo not given)
3. COc1ccc(-n2c(=S)sc3c(Cl)nc(C)nc32)c(OC)c1
4. COc1cc2c(/C=C3\C(=O)Nc4ccccc43)c[nH]c2cc1C
5. O=C1C(=O)c2c(nc3ccc(C(F)(F)F)cn23)-c2ccccc21

Ans:
1. 0.144 µM
2. 10.1 µM
3. 2.17 µM
4. 0.861 µM
5. 0.224 µM

###

# Tested on: K-562 leukemia
# experiment_summary: NCI tumour cell line growth inhibition, 48 h
recorded_endpoint: GI50

NC(N)=N/N=C\c1ccc(OCc2ccccc2)cc1
2.65 µM
COc1cc2c(cc1OCCNC(=O)/C=C1\C[C@H]3C=Nc4cc(OCc5ccccc5)c(OC)cc4C(=O)N3C1)N=C[C@@H]1CCCN1C2=O
2.78 µM
COc1cc2c(/C=C3\C(=O)Nc4ccccc43)c[nH]c2cc1C
0.225 µM
COc1cc2c(cc1C)NC(=O)/C2=C/c1ccnc2ccccc12
6.34 µM
CC(C)(C)C[C@H]1N[C@@H](C(=O)NC2CCC(O)CC2)[C@H](c2cccc(Cl)c2F)[C@@]12C(=O)Nc1cc(Cl)ccc12 (stereo partly drawn)
4.15 µM
O=C1NC(=NCCc2ccc(Cl)cc2)S/C1=C\c1ccc2ncccc2c1
> 25 µM

Hey, can you go through the list below and give me GI50 for every item?
1. COc1ccc(-c2ccc(C3CC(c4ccccc4)=NN3)o2)c([N+](=O)[O-])c1 (stereo not drawn)
2. O=C(Nc1sc2c(c1C(=O)O)CCCC2)c1ccco1

Ans:
1: 34.5 µM; 2: 23.9 µM
